- tested_system: Sushi domains (SD1/2) protein of the GABAB1a (GB1a) subunit, recombinant
- Sequence (Q9Z0U4 29-158): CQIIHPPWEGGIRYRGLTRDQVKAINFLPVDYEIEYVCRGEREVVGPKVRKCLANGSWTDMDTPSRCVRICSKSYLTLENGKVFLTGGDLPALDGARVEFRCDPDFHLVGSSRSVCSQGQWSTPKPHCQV
- assay_method_text: FP competition
Starred links: 1 amine or outer side, 2 acyl side, 3 side chain; linkers in the order of their positions; H or OH if unused. Non-standard residues stand in square brackets, D forms with d. Tyr(Bzl) = Obtyr, O-benzyl-L-tyrosine, O=C([C@H](Cc1ccc(OCc2ccccc2)cc1)N[*:1])[*:2]
outcome_measure: Ki (nM)
Enter your answer as a number in nM; do not include the unit.

Below: 3 binders and their reported Ki.
Ac-ETEFIAWGPTGDAD-NH2	38
Ac-EDDSDVWW[Tyr(Bzl)]GADTD-NH2 (SMILES CC(=O)N[C@@H](CCC(=O)O)C(=O)N[C@@H](CC(=O)O)C(=O)N[C@@H](CC(=O)O)C(=O)N[C@@H](CO)C(=O)N[C@@H](CC(=O)O)C(=O)N[C@H](C(=O)N[C@@H](Cc1c[nH]c2ccccc12)C(=O)N[C@@H](Cc1c[nH]c2ccccc12)C(=O)N[C@@H](Cc1ccc(OCc2ccccc2)cc1)C(=O)NCC(=O)N[C@@H](C)C(=O)N[C@@H](CC(=O)O)C(=O)N[C@H](C(=O)N[C@@H](CC(=O)O)C(N)=O)[C@@H](C)O)C(C)C) [EDDSDVWW(Obtyr)GADTD]	100
Ac-QYPWAIVWGPTVSREDG-NH2	650

Report measured Ki; entry is Ac-EDDSDVWWGGADED-NH2
337
